Test: Tissue distribution of radioactivity in rats after intravenous administration
Format: in vivo
Conditions: rat, kidneys, iv, 2 h, read-out: Distribution of radioactivity, Kidneys
Metric name: tissue uptake at 2 h (%ID/g)
Numeric only. Scale: %ID/g

Query: What value of tissue uptake at 2 h has been recorded for this entry: "O=C(O)CCCC[Te]CCCCCCCCCc1ccc([125I])cc1"
Response: 1.37

This collection of values is drawn from patent US4523033A.
